Hi there, I'd appreciate the recorded Emax at 10 µM for every entry that follows.
# Tested on: PXR (nuclear receptor subfamily 1 group I member 2) (Homo sapiens)
# Sequence (O75469 whole entry): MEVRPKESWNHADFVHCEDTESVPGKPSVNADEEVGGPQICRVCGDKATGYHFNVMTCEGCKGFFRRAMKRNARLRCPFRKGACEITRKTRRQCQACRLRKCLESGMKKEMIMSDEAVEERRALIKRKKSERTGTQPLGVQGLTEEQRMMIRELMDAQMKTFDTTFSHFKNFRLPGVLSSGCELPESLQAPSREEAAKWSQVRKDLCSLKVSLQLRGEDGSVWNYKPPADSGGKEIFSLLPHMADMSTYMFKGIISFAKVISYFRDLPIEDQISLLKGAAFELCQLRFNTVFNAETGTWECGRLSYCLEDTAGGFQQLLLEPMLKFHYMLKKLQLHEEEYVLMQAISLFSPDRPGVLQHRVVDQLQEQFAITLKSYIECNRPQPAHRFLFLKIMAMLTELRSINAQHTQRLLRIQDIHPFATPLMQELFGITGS
# Protocol: Inhibition of human PXR induction at 10 uM
Just the number in %, nothing appended.

Lab note: measured Emax at 10 µM of C[C@@H](O[C@H]1CN2C(=O)C(N)C[C@H]2[C@@H]1c1ccc(F)cc1)c1cc(C(F)(F)F)cc(C(F)(F)F)c1 (some centres undefined) was 7

Lab note: measured Emax at 10 µM of C[C@@H](O[C@H]1CN2C(=O)[C@H]3C[C@@H](NCc4ccccc4)C[C@H]3[C@H]2[C@@H]1c1ccc(F)cc1)c1cc(C(F)(F)F)cc(C(F)(F)F)c1 was 0

Lab note: measured Emax at 10 µM of C[C@@H](O[C@H]1CN2C(=O)[C@H]3C[C@@H](O)C[C@H]3[C@H]2[C@@H]1c1ccc(F)cc1)c1cc(C(F)(F)F)cc(C(F)(F)F)c1 was 65

Lab note: measured Emax at 10 µM of C[C@@H](O[C@H]1CN2C(=O)[C@H]3C[C@@H](N)C[C@H]3[C@H]2[C@@H]1c1ccc(F)cc1)c1cc(C(F)(F)F)cc(C(F)(F)F)c1 was 0
